Tested on: 565726-208-R1-J5-PDC complex spheroids, growth inhibition;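 further: spheroids exposed to compounds for seven days before readout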
Test: Anticancer human tumor 565726-208-R1-J5-PDC patient-derived pancreatic adenocarcinoma cell line growth inhibition [RAS]
Conditions: curve of first compound; second compound 0.0949 µM
measurement.kind: IC50

I am curious: what IC50 value has been reported for CC(=O)OC12COC1CC(O)C1(C)C(=O)C(O)C3=C(C)C(OC(=O)C(O)C(NC(=O)OC(C)(C)C)c4ccccc4)CC(O)(C(OC(=O)c4ccccc4)C21)C3(C)C (centres undefined) + CCn1c(-c2cc(N3CCN(C)CC3)cnc2C(C)OC)c2c3cc(ccc31)-c1csc(n1)CC(NC(=O)C1CC1C)C(=O)N1CCCC(N1)C(=O)OCC(C)(C)C2 ?
< 31.6 nM

Suppose we examine the molecule CC1(C)CCC(Nc2ncc(C(F)(F)F)c(-c3c[nH]c4c(P(C)(C)=O)c(C#N)ccc34)n2)CN1 (centres undefined) + CCn1c(-c2cccnc2C(C)OC)c2c3cc(ccc31)N1CCOC(CC(NC(=O)C(C(C)C)N(C)C(=O)C3(F)CCN(C(=O)C#CC(C)(C)N(C)C)CC3)C(=O)N3CCCC(N3)C(=O)OCC(C)(C)C2)C1 ; what IC50 value has been reported?
2.54 nM

Give the measured IC50 of CCC(CC)c1cc(NC2CCC(N)C2)n2nccc2n1 (centres undefined) + CCn1c(-c2cccnc2C(C)OC)c2c3cc(ccc31)N1CCOC(CC(NC(=O)C(C(C)C)N(C)C(=O)C3(F)CCN(C(=O)C#CC(C)(C)N(C)C)CC3)C(=O)N3CCCC(N3)C(=O)OCC(C)(C)C2)C1 .
1340 nM

What IC50 value was documented for this molecule, CCN1CCN(Cc2ccc(Nc3ncc(F)c(-c4cc(F)c5nc(C)n(C(C)C)c5c4)n3)nc2)CC1 + CCn1c(-c2cccnc2C(C)OC)c2c3cc(ccc31)N1CCOC(CC(NC(=O)C(C(C)C)N(C)C(=O)C3(F)CCN(C(=O)C#CC(C)(C)N(C)C)CC3)C(=O)N3CCCC(N3)C(=O)OCC(C)(C)C2)C1 ?
> 1000 nM

Give its IC50 value. Item: CC(Nc1ccc2c(c1)OCCn1cc(N3C(=O)OCC3C(F)F)nc1-2)C(N)=O (centres undefined) + CCn1c(-c2cc(N3CCN(C)CC3)cnc2C(C)OC)c2c3cc(ccc31)-c1csc(n1)CC(NC(=O)C1CC1C)C(=O)N1CCCC(N1)C(=O)OCC(C)(C)C2
< 31.6 nM

Query (molecule): C=CC(=O)Nc1cc(Nc2nccc(-c3cn(C)c4ccccc34)n2)c(OC)cc1N(C)CCN(C)C + CCn1c(-c2cccnc2C(C)OC)c2c3cc(ccc31)N1CCOC(CC(NC(=O)C(C(C)C)N(C)C(=O)C3(F)CCN(C(=O)C#CC(C)(C)N(C)C)CC3)C(=O)N3CCCC(N3)C(=O)OCC(C)(C)C2)C1 ; field requested: IC50
> 1000 nM

What does the record list as IC50 for C=CC(=O)Nc1cc(Nc2nccc(-c3cn(C)c4ccccc34)n2)c(OC)cc1N(C)CCN(C)C + CCn1c(-c2cc(N3CCN(C)CC3)cnc2C(C)OC)c2c3cc(ccc31)-c1csc(n1)CC(NC(=O)C1CC1C)C(=O)N1CCCC(N1)C(=O)OCC(C)(C)C2 ?
< 3.16 nM

What does the record list as IC50 for C[C@@H](NC(=O)c1ncnc(N)c1Cl)c1ncc(C(=O)Nc2cc(C(F)(F)F)c(Cl)cn2)s1 + CCn1c(-c2cc(N3CCN(C)CC3)cnc2C(C)OC)c2c3cc(ccc31)-c1csc(n1)CC(NC(=O)C1CC1C)C(=O)N1CCCC(N1)C(=O)OCC(C)(C)C2 ?
< 31.6 nM

For the molecule CCN1CCN(Cc2ccc(Nc3ncc(F)c(-c4cc(F)c5nc(C)n(C(C)C)c5c4)n3)nc2)CC1 + CCn1c(-c2cc(N3CCN(C)CC3)cnc2C(C)OC)c2c3cc(ccc31)-c1csc(n1)CC(NC(=O)C1CC1C)C(=O)N1CCCC(N1)C(=O)OCC(C)(C)C2 , what IC50 is on record?
< 3.16 nM
